Just for reference, patent US20050182242A1 is where these values come from.

Tested on: PI(4,5)P2 liposomes
Experiment: Yeast proteome chip probed with PI(4,5)P2 liposomes
Conditions: liposome binding signal on yeast proteome chip, Cy3-streptavidin detection
Entries and their PI(4, 5)P2
Lab note: record the figure alone, no unit after it.

molecule: APS2: yeast GST-HisX6 fusion protein on proteome chip (protein, UniProt Q00381 1-147, looked up, GST-HisX6 tag, yeast GST-HisX6 fusion protein on proteome chip) AP-2 complex subunit sigma: MAVQFILCFNKQGVVRLVRWFDVHSSDPQRSQDAIAQIYRLISSRDHKHQSNFVEFSDSTKLIYRRYAGLYFVMGVDLLDDEPIYLCHIHLFVEVLDAFFGNVCELDIVFNFYKVYMIMDEMFIGGEIQEISKDMLLERLSILDRLD
PI(4, 5)P2: 103.65
--
molecule: YER046W: yeast GST-HisX6 fusion protein on proteome chip (protein, UniProt P40031 1-143, looked up, GST-His6 tag, yeast GST-HisX6 fusion protein on proteome chip) Sporulation-specific protein …: MGKNHFLKDFSALPEDVLIENERGITLLGYPLFSPKILLPHVDPPQFQRLNTENGSLIALSKNTISNFIELYPIDLSTERTAGSSSSQMTKWFVLMDYKEKYDIDDQGWCYSWNFNNSRWKSKNGLVRRRVWVRLPTTSHGLD
PI(4, 5)P2: 6.31
--
molecule: MAG1: yeast GST-HisX6 fusion protein on proteome chip (protein, UniProt P22134 1-296, looked up, GST-His6 tag, yeast GST-HisX6 fusion protein on proteome chip) DNA-3-methyladenine …: MKLKREYDELIKADAVKEIAKELGSRPLEVALPEKYIARHEEKFNMACEHILEKDPSLFPILKNNEFTLYLKETQVPNTLEDYFIRLASTILSQQISGQAAESIKARVVSLYGGAFPDYKILFEDFKDPAKCAEIAKCGLSKRKMIYLESLAVYFTEKYKDIEKLFGQKDNDEEVIESLVTNVKGIGPWSAKMFLISGLKRMDVFAPEDLGIARGFSKYLSDKPELEKELMRERKVVKKSKIKHKKYNWKIYDDDIMEKCSETFSPYRSVFMFILWRLASTNTDAMMKAEENFVKS
PI(4, 5)P2: 5.23
--
molecule: PAU5: yeast GST-HisX6 fusion protein on proteome chip (protein, UniProt P43575 1-122, looked up, GST-His6 fusion tag, yeast GST-HisX6 fusion protein on proteome chip) Seripauperin-5: MVKLTSIAAGVAAIAAGASAAATTTLSQSDERVNLVELGVYVSDIRAHLAEYYSFQAAHPTETYPVEIAEAVFNYGDFTTMLTGIPADQVTRVITGVPWYSSRLKPAISSALSADGIYTIAN
PI(4, 5)P2: −1.31

Proceed to the following item.
// Input: ROT1: yeast GST-HisX6 fusion protein on proteome chip (protein, UniProt Q03691 25-256, looked up, GST-His6 tag, yeast GST-HisX6 fusion protein on proteome chip) Protein ROT1: EDESNSIYGTWSSKSNQVFTGPGFYDPVDELLIEPSLPGLSYSFTEDGWYEEATYQVSGNPRNPTCPMASLIYQHGTYNISENGTLVLNPIEVDGRQLFSDPCNDDGVSTYSRYNQTETFKEYAVGIDPYHGIYTLQLYQYDGTPMQPLYLAYRPPMMLPTETLNPTSSATSTDDPSSNKKRSLRSLVRRSLENRHKTNAIKRQNTSFLTSNAIWYISAGMLGVGSLLFLAF . Output its PI(4, 5)P2 only.
63.58
